Hello, the source for this data is paper PMC9775191, in case you need it.

Please go through the items and note down their inhibition at 50 µM.
# Test system: Klebsiella pneumoniae (ATCC 700603)
# TEST: Anti-bacterial activity assay
# Type: cell-based
# PARTICULARS: ATCC700603, 50 µM, read-out: Bacterial Inhibition K. pneumoniae
Numbers only, in %.

Known inhibition at 50 µM results, listed for orientation:
>>> result_value("CC1CCN(C(=O)c2oc3ccccc3c2NC(=O)c2ccc([N+](=O)[O-])o2)CC1")
-1.21
>>> result_value("CCOc1ccc(CCNC(=O)c2ccc3c(c2)nc2n3CCOC2)cc1OCC")
7.3
>>> result_value("Cc1ncc([N+](=O)[O-])n1Cc1csc(Cc2ccccc2)n1")
16.4
>>> result_value("COc1ccc(NC(=O)c2ccc(-c3cc(NC4CCCCC4)ncn3)cc2)cc1")
1.61
>>> result_value("Cc1cc2[nH]c(C(=O)Nc3ccccc3C)c(CN3CCOCC3)c2s1")
6.11
>>> result_value("Nc1c(-c2nc(-c3ccccc3)cs2)c2ccccn2c1C(=O)c1ccc2c(c1)OCO2")
9.49

Provide the reported inhibition at 50 µM of each entry below, same order.
1. COc1cc(NS(=O)(=O)c2ccc(C)cc2)cc2sc(NC(=O)c3ccccc3)nc12
2. Cc1nn(-c2ccccc2)c2sc(C(=O)N3CCCCC3)cc12

[6.94, 16.3]
